Origin of values: ChEMBL document CHEMBL5291721

- TARGET UNDER TEST: Peroxisome proliferator-activated receptor gamma (Homo sapiens); further: assay procedure not described here
- Sequence (P37231 whole entry): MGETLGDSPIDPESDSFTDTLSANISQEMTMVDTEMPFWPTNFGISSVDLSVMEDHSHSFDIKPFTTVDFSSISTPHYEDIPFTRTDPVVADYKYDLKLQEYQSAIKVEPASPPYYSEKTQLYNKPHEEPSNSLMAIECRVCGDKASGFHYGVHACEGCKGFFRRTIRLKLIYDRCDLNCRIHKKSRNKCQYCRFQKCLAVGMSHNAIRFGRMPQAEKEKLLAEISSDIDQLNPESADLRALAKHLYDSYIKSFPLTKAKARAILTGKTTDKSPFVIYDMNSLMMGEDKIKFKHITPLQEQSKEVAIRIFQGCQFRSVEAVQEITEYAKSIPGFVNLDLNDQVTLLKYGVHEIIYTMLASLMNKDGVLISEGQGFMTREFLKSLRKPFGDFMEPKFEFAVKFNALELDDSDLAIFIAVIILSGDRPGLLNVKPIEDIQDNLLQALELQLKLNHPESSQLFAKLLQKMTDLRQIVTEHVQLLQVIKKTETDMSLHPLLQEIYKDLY
- Type: functional
ATTRIBUTE MEASURED: AC50

# example entries with known answers
O=C1Nc2ccc(Cl)cc2[C@@](C#CC2CC2)(C(F)(F)F)O1 :: 18 µM
CCCN1C[C@H](CSC)C[C@@H]2c3cccc4[nH]cc(c34)C[C@H]21 [PERGOLIDE] :: > 30 µM
N[C@@H]1[C@H]2CN(c3nc4c(cc3F)c(=O)c(C(=O)O)cn4-c3ccc(F)cc3F)C[C@@H]12 :: > 30 µM

Next, consider the following compound.
*Q* Entry under review: C[C@@H](O)[C@H]1C(=O)N2C(C(=O)O)=C(S[C@@H]3CN[C@H](C(=O)N(C)C)C3)[C@H](C)[C@H]12 . Reported AC50?
*A* > 300 µM
